Entry source: the Human Domainome abundance scans (Beltran et al. 2025)

B1: Zinc finger homeobox protein 4, residues 2086 to 2141; numbered along this chain, Q86UP3 (parent)
chain: RPRTRITDDQLKILRAYFDINNSPSEEQIQEMAEKSGLSQKVIKHWFRNTLFKERQ

Variants of: B1
procedureSummary: abundance fitness (aPCA) (normalised: wild type 0, dead -1); higher = more abundant; growth selection in yeast, the domain comes from the species named
reportedConditions: Homo sapiens
Short version: abundance fitness at least -0.04 is TRUE, less is FALSE.

These recorded examples may help you get a feel for the data.
Would you say N49Y shows abundance fitness at minimum -0.04?
FALSE

Form field: abundance fitness at least -0.04? Entry: R55F
FALSE

Is it the case that E34V has abundance fitness reaching or exceeding -0.04?
TRUE

Has Q56L a recorded abundance fitness greater than or equal to -0.04?
FALSE

Please check the record T50E and state if its abundance fitness is at or above -0.04.
TRUE

---
Identify whether the reported abundance fitness of the following variant is -0.04 or greater: M32Q
FALSE

Please check the record I20V and state if its abundance fitness is at or above -0.04.
TRUE

Hi team, for I29P , is the recorded abundance fitness at or above -0.04?
FALSE

Given E26L , state whether its abundance fitness is at least -0.04.
TRUE

abundance fitness >= -0.04 for S36L ?
FALSE

Tell me whether abundance fitness is at least -0.04 here: E34H
FALSE
